- Target of assay: wild-type human cardiac sodium channel, hNav1.5 (peak INa) (Homo sapiens)
- Test description: Peak INa screening assay (tonic and use-dependent block)
- Type: cell-based
- Measurement parameters: use-dependent block of peak INa, 3 Hz, 1 μM; read-out: Peak UDB 1 μM
Consider the following compounds; for each one, report its inhibition at 1 µM.
Answers are plain numbers, in %.

Compound | Unit symbol | Reported measurement
O=c1c2cc(-c3ccc(OC(F)(F)F)cc3)ccc2nnn1CC1(CN2CCCC2)CC1 [II-63] | % | 50
Cc1nccn1CC1(Cn2nnc3ccc(-c4ccc(OC(F)(F)F)cc4)cc3c2=O)CC1 [II-34] | % | 34
O=C(c1ncccn1)N1CCc2ccc(-c3ccc(OC(F)(F)F)cc3)cc2C1 [IX-11] | % | 22
O=c1c2cc(-c3ccc(OC(F)(F)F)cc3)ccc2cnn1CCn1cccn1 [III-9] | % | 15
O=c1c2cc(-c3ccc(OC(F)(F)F)cc3)ccc2nnn1Cc1noc(C2CC2)n1 [II-14] | % | 1

Hey, quick one: what's inhibition at 1 µM for each of these?
1. O=c1c2cc(C#Cc3ccc(OC(F)(F)F)cc3)ccc2nnn1CCOc1ncccn1 [VII-1]
2. Cc1coc(Cn2nnc3ccc(-c4ccc(OC(F)(F)F)cc4)cc3c2=O)n1 [II-97]

Given back:
1. 1
2. 7

List the reported inhibition at 1 µM of each compound below.
1. COc1cc(OC)nc(Cn2ncc3ccc(-c4ccc(OC(F)(F)F)cc4)cc3c2=O)n1 [III-19]
2. O=c1c2cc(-c3ccc(OC(F)(F)F)cc3)ccc2cnn1CCOc1cnccn1 [III-39]
3. O=c1c2cc(-c3ccc(OC(F)(F)F)cc3)ccc2nnn1Cc1cc(-c2ccccn2)on1 [II-47]
4. Cc1cc(Cn2nnc3ccc(-c4ccc(OC(F)(F)F)cc4)cc3c2=O)no1 [II-26]

Given back:
[19, 0, 4, 5]

Dear colleague, could you send me inhibition at 1 µM for each of the items below? Thanks.
1. O=c1c2cc(-c3ccc(OC(F)(F)F)cc3)ccc2nnn1Cc1nnc(C2CC2)o1 [II-67]
2. O=C1c2cc(-c3ccc(OC(F)(F)F)cc3)ccc2SCN1Cc1ccccn1 [Compound X-1]
3. O=C1c2cc(-c3ccc(C(F)(F)F)cc3)ccc2SCN1Cc1ncccn1 [Compound X-4]
4. COc1ccnc(Cn2ncc3ccc(-c4ccc(OC(F)(F)F)cc4)cc3c2=O)n1 [III-30]
5. CC(Cn1ncc2ccc(-c3ccc(OC(F)(F)F)cc3)cc2c1=O)n1cccn1 (centres unmarked) [III-38]

Given back:
7
22
25
12
11

The following compounds each have a reported value; give each one's inhibition at 1 µM.
1. N#Cc1ccnc(OCCn2nnc3ccc(-c4ccc(OC(F)(F)F)cc4)cc3c2=O)n1 [II-36]
2. O=C1c2cc(-c3ccc(OC(F)(F)F)cc3)ccc2SCN1Cc1ncccn1 [Compound X-2]
3. O=c1c2cc(-c3ccc(OC(F)(F)F)cc3)ccc2nnn1CCOc1ncccn1 [II-32]

Given back:
1. 8
2. 17
3. 21

###

- Target of assay: wild-type human cardiac sodium channel, hNav1.5 (late INa) (Homo sapiens, UniProt Q14524)
- Sequence (Q14524 whole entry): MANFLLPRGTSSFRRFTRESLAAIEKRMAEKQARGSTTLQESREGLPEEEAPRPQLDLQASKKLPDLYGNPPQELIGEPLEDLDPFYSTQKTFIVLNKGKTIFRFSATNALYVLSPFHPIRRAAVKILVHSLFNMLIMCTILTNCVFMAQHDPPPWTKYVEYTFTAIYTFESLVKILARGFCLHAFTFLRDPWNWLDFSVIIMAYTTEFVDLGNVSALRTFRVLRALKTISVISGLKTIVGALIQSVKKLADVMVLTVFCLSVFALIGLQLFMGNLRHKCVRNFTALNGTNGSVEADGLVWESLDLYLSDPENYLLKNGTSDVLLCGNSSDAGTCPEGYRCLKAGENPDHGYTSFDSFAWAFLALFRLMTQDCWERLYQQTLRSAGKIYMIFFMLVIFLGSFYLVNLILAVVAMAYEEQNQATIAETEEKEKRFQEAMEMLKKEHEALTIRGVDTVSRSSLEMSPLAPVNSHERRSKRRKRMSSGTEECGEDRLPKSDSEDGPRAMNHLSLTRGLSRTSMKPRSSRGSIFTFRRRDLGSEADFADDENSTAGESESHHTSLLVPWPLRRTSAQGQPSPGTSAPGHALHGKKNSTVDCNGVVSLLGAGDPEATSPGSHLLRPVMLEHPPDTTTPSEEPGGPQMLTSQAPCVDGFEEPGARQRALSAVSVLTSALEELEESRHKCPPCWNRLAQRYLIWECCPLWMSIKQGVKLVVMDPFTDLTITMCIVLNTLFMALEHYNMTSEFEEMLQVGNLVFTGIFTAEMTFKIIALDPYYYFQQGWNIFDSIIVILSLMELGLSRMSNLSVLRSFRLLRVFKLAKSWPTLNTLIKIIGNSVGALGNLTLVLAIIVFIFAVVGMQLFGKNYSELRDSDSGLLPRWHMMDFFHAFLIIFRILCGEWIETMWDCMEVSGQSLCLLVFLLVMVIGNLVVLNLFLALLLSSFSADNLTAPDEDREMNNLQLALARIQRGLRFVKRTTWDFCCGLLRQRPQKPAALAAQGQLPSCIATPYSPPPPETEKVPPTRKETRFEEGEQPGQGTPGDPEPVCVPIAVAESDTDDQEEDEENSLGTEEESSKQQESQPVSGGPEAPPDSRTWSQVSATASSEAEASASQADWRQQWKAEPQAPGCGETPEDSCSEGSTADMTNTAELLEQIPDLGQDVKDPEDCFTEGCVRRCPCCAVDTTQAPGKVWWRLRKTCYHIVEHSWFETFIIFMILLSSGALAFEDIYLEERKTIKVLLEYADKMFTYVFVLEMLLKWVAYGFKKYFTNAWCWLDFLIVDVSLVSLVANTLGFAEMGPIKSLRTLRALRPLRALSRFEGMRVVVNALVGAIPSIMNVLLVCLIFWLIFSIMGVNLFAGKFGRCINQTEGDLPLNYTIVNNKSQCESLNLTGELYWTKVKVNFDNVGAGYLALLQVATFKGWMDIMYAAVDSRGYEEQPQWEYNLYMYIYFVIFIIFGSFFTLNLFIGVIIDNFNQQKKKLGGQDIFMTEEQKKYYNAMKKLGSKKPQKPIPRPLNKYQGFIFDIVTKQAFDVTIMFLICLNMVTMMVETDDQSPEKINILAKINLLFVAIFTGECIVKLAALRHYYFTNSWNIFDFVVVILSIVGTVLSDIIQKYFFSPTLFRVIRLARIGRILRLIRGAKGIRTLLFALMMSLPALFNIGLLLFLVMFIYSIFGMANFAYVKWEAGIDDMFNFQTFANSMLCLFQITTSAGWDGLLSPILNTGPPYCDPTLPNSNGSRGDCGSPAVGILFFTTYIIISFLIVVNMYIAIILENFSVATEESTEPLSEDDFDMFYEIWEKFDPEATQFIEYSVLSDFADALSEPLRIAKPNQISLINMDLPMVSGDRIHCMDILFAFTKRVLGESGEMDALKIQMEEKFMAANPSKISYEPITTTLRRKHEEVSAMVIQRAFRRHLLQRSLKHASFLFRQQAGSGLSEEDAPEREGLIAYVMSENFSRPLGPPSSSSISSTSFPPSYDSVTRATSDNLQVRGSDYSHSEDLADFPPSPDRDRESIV
- Test description: Late INa screening assay (QPatch whole cell patch clamp)
- Format: cell-based
- Measurement parameters: % inhibition at 1 μM; read-out: NAv1.5*-LATE-
Would you kindly list inhibition at 1 µM for each of these compounds?
Give bare numbers, in %.

Some solved entries appear below for comparison.
Smiles | inhibition at 1 µM (%)
O=C(N1CCc2ccc(-c3ccc(C(F)(F)F)cc3)cc2C1)N1CC(O)C1 | 30
O=C(c1ncccn1)N1CCc2ccc(-c3ccc(OC(F)(F)F)cc3)cc2C1 | 44
O=c1c2cc(-c3ccc(OC(F)(F)F)cc3)ccc2cnn1Cc1ncccn1 | 44
Cc1noc(Cn2ncc3ccc(-c4ccc(OC(F)(F)F)cc4)cc3c2=O)n1 | 40
COC(=O)C1(Cn2nnc3ccc(-c4ccc(OC(F)(F)F)cc4)cc3c2=O)CC1 | 58

Below are 5 compounds. Give each one its inhibition at 1 µM.
1. COc1cc(OC)nc(Cn2ncc3ccc(-c4ccc(OC(F)(F)F)cc4)cc3c2=O)n1
2. O=c1c2cc(-c3ccc(OC(F)(F)F)cc3)ccc2nnn1Cc1nnc(C2CC2)o1
3. N#Cc1ccnc(OCCn2nnc3ccc(-c4ccc(OC(F)(F)F)cc4)cc3c2=O)n1
4. O=C(c1cccnn1)N1CCc2ccc(-c3ccc(C(F)(F)F)cc3)cc2C1
5. C[C@@H]1CC[C@@H](C)N1C(=O)N1CCc2ccc(-c3ccc(C(F)(F)F)cc3)cc2C1

Given back:
1. 56
2. 47
3. 43
4. 39
5. 43

Please state, for each entry, its recorded inhibition at 1 µM.
1. O=c1c2cc(-c3ccc(OC(F)(F)F)cc3)ccc2cnn1CCn1cccn1
2. O=C1c2cc(-c3ccc(OC(F)(F)F)cc3)ccc2CCN1Cc1ncccn1
3. Cc1noc(Cn2nnc3ccc(-c4ccc(OC(F)(F)F)cc4)cc3c2=O)n1
4. O=c1c2cc(-c3ccc(OC(F)(F)F)cc3)ccc2cnn1CCOc1ncccn1
5. Cc1ncc(Cn2nnc3ccc(-c4ccc(OC(F)(F)F)cc4)cc3c2=O)o1

Given back:
[57, 32, 53, 75, 36]

###

- Test description: Microsomal stability assay, human
- Format: in vitro ADME
- Measurement parameters: metabolic stability, human liver microsomes 0.5 mg/mL, substrate 3 uM
# if measured MS Human THalf < 200 min: True  # else: False

Compound | Class label
O=c1c2cc(C#Cc3ccc(OC(F)(F)F)cc3)ccc2nnn1CCOc1ncccn1 [VII-1] | False
Cc1noc(Cn2nnc3ccc(-c4ccc(Oc5ccccc5)cc4)cc3c2=O)n1 [II-7] | True
CC1Oc2ccc(-c3ccc(OC(F)(F)F)cc3)cc2C(=O)N1Cc1ncccn1 (stereo not drawn) [VIII-7] | False
Cc1nonc1Cn1cnc2ccc(-c3ccc(OC(F)(F)F)cc3)cc2c1=O [IV-3] | False
Cc1ccnn1CCn1ncc2ccc(-c3ccc(OC(F)(F)F)cc3)cc2c1=O [III-32] | True

Asked: Item O=c1c2cc(-c3ccc(OC(F)(F)F)cc3)ccc2nnn1CCc1ccccn1 [II-15] : MS Human THalf beneath 200 min, strictly?
Given back: True

Asked: Identify whether the compound O=c1c2cc(-c3ccc(OC(F)(F)F)cc3)ccc2nnn1CCc1ccncn1 [II-17] records MS Human THalf below 200 min.
Given back: True

Asked: Item Cc1ncc(Cn2nnc3ccc(-c4ccc(OC(F)(F)F)cc4)cc3c2=O)o1 [II-95] : MS Human THalf beneath 200 min, strictly?
Given back: False

Asked: Check if MS Human THalf falls below 200 min for Cc1nc(Cn2nnc3ccc(-c4ccc(OC(F)(F)F)cc4)cc3c2=O)co1 [II-99] .
Given back: True

Asked: Consider O=c1c2cc(-c3ccc(OC(F)(F)F)cc3)ccc2cnn1CCOc1ncc(Cl)cn1 [III-37] . Does its MS Human THalf lie strictly below 200 min?
Given back: True

Asked: Bench note: check whether O=c1c2cc(-c3ccc(OC(F)(F)F)cc3)ccc2nnn1CCc1ncccn1 [II-18] shows MS Human THalf below 200 min
Given back: True

Asked: Does the reported MS Human THalf of the following compound sit strictly below 200 min? O=c1c2cc(-c3ccc(OC(F)(F)F)cc3)ccc2nnn1Cc1nnc(C2CC2)s1 [II-66]
Given back: False

Asked: Please state whether MS Human THalf is below 200 min for O=c1c2cc(-c3ccc(OC(F)(F)F)cc3)ccc2nnn1CC1(CO)CC1 [II-75]
Given back: False

Asked: Strictly below 200 min: is that where MS Human THalf of C[C@@H]1CC[C@@H](C)N1C(=O)N1CCc2ccc(-c3ccc(C(F)(F)F)cc3)cc2C1 [IX-105] sits?
Given back: True

Asked: Please state whether MS Human THalf is below 200 min for Cc1nccn1CC1(Cn2nnc3ccc(-c4ccc(OC(F)(F)F)cc4)cc3c2=O)CC1 [II-34]
Given back: True

Asked: Just wondering, is MS Human THalf of Cc1cc(Cn2nnc3ccc(-c4ccc(OC(F)(F)F)cc4)cc3c2=O)no1 [II-26] below 200 min?
Given back: False

Asked: Could you please tell me whether MS Human THalf recorded for Cc1nc(Cn2nnc3ccc(-c4ccc(OC(F)(F)F)cc4)cc3c2=O)no1 [II-6] is less than 200 min?
Given back: True

Asked: Report whether reported MS Human THalf is lower than 200 min (strictly) for Cn1cnc(C(=O)N2CCc3ccc(-c4ccc(C(F)(F)F)cc4)cc3C2)c1 [IX-39]
Given back: False

Asked: A record lists COc1cc(OC)nc(Cn2ncc3ccc(-c4ccc(OC(F)(F)F)cc4)cc3c2=O)n1 [III-19] . Is its MS Human THalf below 200 min?
Given back: True

###

- Target of assay: wild-type human cardiac sodium channel, hNav1.5 (late INa) (Homo sapiens, UniProt Q14524)
- Test description: Late INa screening assay (QPatch whole cell patch clamp)
- Type: cell-based
- Measurement parameters: percent block of late INa, compound at 1 μM, 10 μM Tefluthrin, HEK293 hNav1.5; read-out: Late INa 1 μM
I'd be grateful if you could share measured inhibition at 1 µM for these entries.
Answers are plain numbers, in %.

Before answering, review these 3 worked examples.
Smiles | Reported measurement
CC(C)n1cc(C(=O)N2CCc3ccc(-c4ccc(C(F)(F)F)cc4)cc3C2)cn1 | 18
N#CC1(n2nnc3ccc(-c4ccc(OC(F)(F)F)cc4)cc3c2=O)CC1 | 26
Cc1noc(Cn2nnc3ccc(-c4ccc(Oc5ccccc5)cc4)cc3c2=O)n1 | 75

Now take the following compound into account.
Asked: Any idea what its inhibition at 1 µM is? The compound is O=C(c1ncccn1)N1CCc2ccc(-c3ccc(C(F)(F)F)cc3F)cc2C1
Given back: 29
